Experiment: Hagman readings (particle size), titanium dioxide dispersion, Table VI A
Assay type: physicochemical
Settings: TiO2 50%, pass 5
Experimental: The novel benzoate esters of the invention were tested for pigment and dye dispersing efficacy. Color pastes were prepared by dispersing dry pigment into the oil phase while hand stirring and then passing each mixture through a three roll mill six times, collecting a 16 oz. sample after each pass. The samples collected were subjected to particle size measurements.
Answer each item with its documented Hagman reading (particle size).

* CCCCCCC(CC=CCCCCCCCC(=O)OCC(COC(=O)CCCCCCCC=CCC(CCCCCC)OC(=O)c1ccccc1)OC(=O)CCCCCCCC=CCC(CCCCCC)OC(=O)c1ccccc1)OC(=O)c1ccccc1 (stereo not shown) | ≤ 10 μm

Hi team, please reply with Hagman reading (particle size) for each item in this list.
1. CCCCCCC(CCCCCCCCCCC(=O)OCC(CC)CCCC)OC(=O)c1ccccc1 (stereo not shown)
2. CCCCCCCCCCCCCCCCOC(=O)CCCCCCC/C=C\C[C@H](O)CCCCCC [CR, Cetyl Ricinoleate, reference compound]
3. CCCCCCCCCCCCCCCCOC(=O)CCCCCCCC=CCC(CCCCCC)OC(=O)c1ccccc1 (stereo not shown) [BCR, benzoic acid ester of cetyl-ricinoleate]

Reply text:
["≤ 9 μm", "≤ 50 μm", "≤ 10 μm"]

---

Answer each item with its documented VISCOSITY.
test: physical properties of benzoate esters compared to precursors, Table II; type: physicochemical; settings: Brookfield Viscometer, Spindle # 1, 10 rpm
Give bare numbers, in cps.

Would you please look over these solved cases?
* CCCCCCCCCCCCCCCCOC(=O)CCCCCCCC=CCC(CCCCCC)OC(=O)c1ccccc1 (stereo not shown) [BCR, benzoic acid ester of cetyl-ricinoleate] | 80
* CCCCCCC(CC=CCCCCCCCC(=O)OCC(COC(=O)CCCCCCCC=CCC(CCCCCC)OC(=O)c1ccccc1)OC(=O)CCCCCCCC=CCC(CCCCCC)OC(=O)c1ccccc1)OC(=O)c1ccccc1 (stereo not shown) | 937
* CCCCCCC(CCCCCCCCCCC(=O)OCC(CC)CCCC)OC(=O)c1ccccc1 (stereo not shown) | 110

Turning to the following molecule.
Entry CCCCCCCCCCCCCCCCOC(=O)CCCCCCC/C=C\C[C@H](O)CCCCCC [CR, Cetyl Ricinoleate, reference compound] — recorded VISCOSITY = 65

---

details: Gardnor scale
attribute_measured: Color
Give bare numbers.

Would you please look over these solved cases?
• CCCCCCCCCCCCCCCCOC(=O)CCCCCCCC=CCC(CCCCCC)OC(=O)c1ccccc1 (stereo not drawn) [Example 9, Benzoate Ester of Cetyl Ricinoleate] = 4
• CCCCCCC(CCCCCCCCCCC(=O)OCC(COC(=O)CCCCCCCCCCC(CCCCCC)OC(=O)c1ccccc1)OC(=O)CCCCCCCCCCC(CCCCCC)OC(=O)c1ccccc1)OC(=O)c1ccccc1 (stereo not drawn) [Example 6, Castor Wax MP-80 Benzoate] = 3
• CCCCCCCCCCCCCCCCOC(=O)CCCCCCCC=CCC(CCCCCC)OC(=O)c1ccccc1 (stereo not drawn) [Example 11, Benzoate Ester of Cetyl Ricinoleate] = 4
• CCCCCCCCCCCCCCCCOC(=O)CCCCCCCC=CCC(CCCCCC)OC(=O)c1ccccc1 (stereo not drawn) [Example 8, Benzoate Ester of Cetyl Ricinoleate] = 4
• CCCCCCCCCCCCCCCCOC(=O)CCCCCCCC=CCC(CCCCCC)OC(=O)c1ccccc1 (stereo not drawn) [Example 10, Benzoate Ester of Cetyl Ricinoleate] = 4

Turning to the following compound.
Entry CCCCCCC(CCCCCCCCCCC(=O)OCC(COC(=O)CCCCCCCCCCC(CCCCCC)OC(=O)c1ccccc1)OC(=O)CCCCCCCCCCC(CCCCCC)OC(=O)c1ccccc1)OC(=O)c1ccccc1 (stereo not drawn) [Example 7, Castor Wax MP-80 Benzoate] — recorded Color = 3

---

experiment: viscosity readings of titanium dioxide dispersions, Table VI B; type: physicochemical; conditions: Brookfield LVT-D @ 12 RPM, TiO2 50%, pass 3
attribute_measured: Viscosity reading of dispersion (cps)
Answers are plain numbers, in cps.

* CCCCCCCCCCCCCCCCOC(=O)CCCCCCCC=CCC(CCCCCC)OC(=O)c1ccccc1 (stereo not shown) [BCR, benzoic acid ester of cetyl-ricinoleate] | 2028
* CCCCCCC(CC=CCCCCCCCC(=O)OCC(COC(=O)CCCCCCCC=CCC(CCCCCC)OC(=O)c1ccccc1)OC(=O)CCCCCCCC=CCC(CCCCCC)OC(=O)c1ccccc1)OC(=O)c1ccccc1 (stereo not shown) [BCO] | 7800

Entry CCCCCCC(CCCCCCCCCCC(=O)OCC(CC)CCCC)OC(=O)c1ccccc1 (stereo not shown) [BOHS] — recorded Viscosity reading of dispersion = 1326

---

Answer each item with its documented S.G. (specific gravity).
Assay: physical properties of benzoate esters compared to precursors, Table II
Format: physicochemical
Details: 25° C.
Description: Absence of odor is an important factor in consumer acceptance of cosmetic and toiletry products.
Give bare numbers.

Would you please look over these solved cases?
- CCCCCCCCCCCCCCCCOC(=O)CCCCCCC/C=C\C[C@H](O)CCCCCC [CR, Cetyl Ricinoleate, reference compound]: 0.874
- CCCCCCCCCCCCCCCCOC(=O)CCCCCCCC=CCC(CCCCCC)OC(=O)c1ccccc1 (stereo not shown) [BCR, benzoic acid ester of cetyl-ricinoleate]: 0.915
- CCCCCCC(CCCCCCCCCCC(=O)OCC(CC)CCCC)OC(=O)c1ccccc1 (stereo not shown): 0.928

Turning to the following compound.
Entry CCCCCCC(CC=CCCCCCCCC(=O)OCC(COC(=O)CCCCCCCC=CCC(CCCCCC)OC(=O)c1ccccc1)OC(=O)CCCCCCCC=CCC(CCCCCC)OC(=O)c1ccccc1)OC(=O)c1ccccc1 (stereo not shown) — recorded S.G. (specific gravity) = 0.982

---

assay: viscosity readings of titanium dioxide dispersions, Table VI B; type: physicochemical; conditions: Brookfield LVT-D @ 12 RPM, TiO2 50%, pass 5
attribute_measured: Viscosity reading of dispersion (cps)
Give bare numbers, in cps.

• CCCCCCC(CCCCCCCCCCC(=O)OCC(CC)CCCC)OC(=O)c1ccccc1 (stereo not shown) = 1326

Hi team, please reply with Viscosity reading of dispersion for each item in this list.
1. CCCCCCC(CC=CCCCCCCCC(=O)OCC(COC(=O)CCCCCCCC=CCC(CCCCCC)OC(=O)c1ccccc1)OC(=O)CCCCCCCC=CCC(CCCCCC)OC(=O)c1ccccc1)OC(=O)c1ccccc1 (stereo not shown)
2. CCCCCCCCCCCCCCCCOC(=O)CCCCCCCC=CCC(CCCCCC)OC(=O)c1ccccc1 (stereo not shown) [BCR, benzoic acid ester of cetyl-ricinoleate]

Reply text:
1. 7176
2. 2028

---

assay: Hagman readings (particle size), titanium dioxide dispersion, Table VI A; assay type: physicochemical; settings: TiO2 50%, pass 2
attribute_measured: Hagman reading (particle size)

Would you please look over these solved cases?
* CCCCCCC(CC=CCCCCCCCC(=O)OCC(COC(=O)CCCCCCCC=CCC(CCCCCC)OC(=O)c1ccccc1)OC(=O)CCCCCCCC=CCC(CCCCCC)OC(=O)c1ccccc1)OC(=O)c1ccccc1 (stereo not shown) [BCO] | ≤ 26 μm
* CCCCCCC(CCCCCCCCCCC(=O)OCC(CC)CCCC)OC(=O)c1ccccc1 (stereo not shown) [BOHS] | ≤ 14 μm
* CCCCCCCCCCCCCCCCOC(=O)CCCCCCC/C=C\C[C@H](O)CCCCCC [CR, Cetyl Ricinoleate, reference compound] | ≤ 80 μm

Turning to the following molecule.
Entry CCCCCCCCCCCCCCCCOC(=O)CCCCCCCC=CCC(CCCCCC)OC(=O)c1ccccc1 (stereo not shown) [BCR, benzoic acid ester of cetyl-ricinoleate] — recorded Hagman reading (particle size) = ≤ 30 μm

---

Answer each item with its documented OVERALL TACTILITY.
Test: organoleptic evaluation of tactile characteristics on the forearm, Table VII
Type: in vivo, individuals
Details: rating, 1 = Worst 5 = Best
Method: The tactile characteristics of the novel benzoate esters of the invention were determined by applying the appropriate material, neat or as a dilution with another emollient ester, lanolin or […]. The properties were evaluated organoleptically after application to the interior surface of the forearm.
Give bare numbers.

* CCCCCCC(CCCCCCCCCCC(=O)OCC(CC)CCCC)OC(=O)c1ccccc1 (stereo not shown) | 3
* CCCCCCC(CC=CCCCCCCCC(=O)OCC(COC(=O)CCCCCCCC=CCC(CCCCCC)OC(=O)c1ccccc1)OC(=O)CCCCCCCC=CCC(CCCCCC)OC(=O)c1ccccc1)OC(=O)c1ccccc1 (stereo not shown) | 3
* CCCCCCCCCCCCCCCCOC(=O)CCCCCCCC=CCC(CCCCCC)OC(=O)c1ccccc1 (stereo not shown) [BCR, benzoic acid ester of cetyl-ricinoleate] | 4

Entry CCCCCCC(CCCCCCCCCCC(=O)OCC(COC(=O)CCCCCCCCCCC(CCCCCC)OC(=O)c1ccccc1)OC(=O)CCCCCCCCCCC(CCCCCC)OC(=O)c1ccccc1)OC(=O)c1ccccc1 (stereo not shown) — recorded OVERALL TACTILITY = 3
